- Tested on: Escherichia coli
- Particulars: Concentration 32 ug.mL-1; ASSAY_TEST Inhibition of Bacterial Growth; detection method Absorption (OD600); MEDIA CAMHB; plate type 384well; NBS; CORNING #3640; time 18 hr
- Description: Antibacterial activity against Escherichia coli ATCC 25922 (CO-ADD:GN_001); MIC in CAMBH media using NBS plates, by OD(600)
Potency and affinity values are given separately.
This section presents molecules with their documented Inhibition values.

# Molecule, Inhibition
measured = [
    ("c1ccc(CNc2ncnc3c2cnn3-c2ccccc2)cc1", "6.64%"),
    ("COc1ccc(C=C2N=C(c3ccccc3)OC2=O)cc1", "14.02%"),
    ("N#CC1=C(N)Oc2ccc3ccccc3c2C1c1ccccc1[N+](=O)[O-] (centres undefined)", "-6.45%"),
    ("COc1ccc2c(c1)cc(CN(C)Cc1cn(Cc3ccccc3)nn1)n2C", "-32.11%"),
    ("CCOC(=O)C1=C(C)OC(N)=C(C#N)C1c1ccc(OC)cc1 (centres undefined)", "-2.05%"),
    ("Cn1cc(C=O)c2ccccc21", "-4.32%"),
    ("CC(C)(C)OC(=O)Nc1ncccc1Br", "-5.45%"),
    ("N#C[C@]1(Br)C(=N)Oc2ccc3ccccc3c2[C@@H]1c1ccc([N+](=O)[O-])cc1", "11.8%"),
    ("COc1ccc2cc(C3C4=C(CC(C)(C)CC4=O)Oc4nc5c(c(N)c43)CCCC5)c(Cl)nc2c1 (centres undefined)", "20.91%"),
    ("N#CC1=C(N)Oc2c(ccc3ccccc23)C1c1cccc([N+](=O)[O-])c1 (centres undefined)", "-10.4%"),
    ("Cc1nn(-c2ccccc2)c2ncnc(NCc3ccccc3)c12", "7.89%"),
    ("CC#CCN(Cc1ccccc1)c1nc(N)c(C#N)cc1C#N", "-4.77%"),
    ("COc1nc2nc3c(c(N)c2cc1C#N)CCCC3.Cl", "-4.74%"),
    ("Cc1ccc2nc(Cl)c(/C=N/OCc3ccccc3)cc2c1", "20.1%"),
    ("CC(=O)NCCc1ccccc1", "11.94%"),
    ("CCOC(=O)c1c(C)nc2nc3c(c(N)c2c1-c1ccc(OC)cc1)CCCCCC3", "-20.4%"),
    ("Nc1n[nH]c2c1C(c1ccccc1)CC(=O)N2 (centres undefined)", "-4.9%"),
    ("N#CC1(Br)C(=NBr)Oc2c(ccc3ccccc23)C1c1ccc([N+](=O)[O-])cc1 (centres undefined)", "-19.6%"),
    ("CCOC(=O)c1c(C)nc(/N=N/c2nc(C)c(C(=O)OCC)c(-c3ccccc3)c2C#N)c(C#N)c1-c1ccccc1", "6.76%"),
    ("CC(C)C(=O)N/N=C/c1c[nH]c2ccccc12", "9.69%"),
    ("N#Cc1cc(C#N)c(NCCO)nc1N", "-7.55%"),
    ("N#Cc1c(N)nc(Cl)c(C#N)c1-c1ccccc1", "12.56%"),
    ("O=C(N/N=C/c1cccc(Cl)c1)c1cc2ccccc2[nH]1", "-12.27%"),
    ("C#CCN(C)c1cc(Cl)nc(N)n1", "-8.33%"),
]
